TARGET_SYSTEM: Hyaluronan mediated motility receptor (Homo sapiens, UniProt O75330)
TEST_PROTOCOL: Inhibition of recombinant RHAMM (unknown origin) binding to HA after 240 secs by SPR method
ATTRIBUTE_MEASURED: Kd (nM)

Take a look at these entries with their results.
SUBSTANCE: H-FTEAESNMNDLV-NH2
Kd [nM]: 30.2
--
SUBSTANCE: H-EEDFGEEAEEEA-NH2
Kd [nM]: 32.6

A = H-VEGEGEEEGEEY-NH2
B = H-GEFEEEAEEEVA-NH2
C = H-EAFEDEEEEIDG-NH2
D = H-SVEAEAEEGEEY-NH2
// query Could you please order the items by Kd, going from the lowest number to the highest? Rank the items, then write their labels in that order.
// result A, B, C, D

---

TARGET_SYSTEM: Hyaluronan mediated motility receptor (Homo sapiens)
TEST_PROTOCOL: Inhibition of C-terminal His-tagged 7 kDa RHAMM (unknown origin) binding to HA assessed as association constant at 750 nM after 240 secs by SPR method
ATTRIBUTE_MEASURED: K (×10⁴ /M.s)

SUBSTANCE: H-VEGEGEEEGEEY-NH2
TARGET_SYSTEM: Hyaluronan mediated motility receptor (Homo sapiens)
K [×10⁴ /M.s]: 5

a = H-GEFEEEAEEEVA-NH2
b = H-EEDFGEEAEEEA-NH2
// query Lab log: flag the item ( a or b ) with the smaller K figure. # answer = label of selected item
// result a
(a: 1.2 ×10⁴ /M.s, b: 3.3 ×10⁴ /M.s)

P = H-EAFEDEEEEIDG-NH2
Q = H-SVEAEAEEGEEY-NH2
// query Lab log: flag the item ( P or Q ) with the smaller K figure. # answer = label of selected item
// result Q
(Q: 1.9 ×10⁴ /M.s, P: 2.9 ×10⁴ /M.s)

---

TARGET_SYSTEM: Hyaluronan mediated motility receptor (Homo sapiens, UniProt O75330)
TEST_PROTOCOL: Inhibition of C-terminal His-tagged 7 kDa RHAMM (unknown origin) binding to HA after 240 secs by SPR method
ATTRIBUTE_MEASURED: Kd (nM)

Take a look at these entries with their results.
SUBSTANCE: H-FTEAESNMNDLV-NH2
ATTRIBUTE_MEASURED: Kd
RESULT_UNITS: nM
RECORDED_VALUE: 20.9

SUBSTANCE: H-GEFEEEAEEEVA-NH2
ATTRIBUTE_MEASURED: Kd
RESULT_UNITS: nM
RECORDED_VALUE: 265

SUBSTANCE: H-VEGEGEEEGEEY-NH2
ATTRIBUTE_MEASURED: Kd
RESULT_UNITS: nM
RECORDED_VALUE: 43.3

a = H-EEDFGEEAEEEA-NH2
b = H-SVEAEAEEGEEY-NH2
c = H-EAFEDEEEEIDG-NH2
// query Sequence the entries by Kd, beginning with the highest number. Rank the items, then write their labels in that order.
// result c, a, b
(c: 289 nM, a: 202 nM, b: 31.9 nM)

---

TARGET_SYSTEM: Hyaluronan mediated motility receptor (Homo sapiens)
Sequence (whole entry): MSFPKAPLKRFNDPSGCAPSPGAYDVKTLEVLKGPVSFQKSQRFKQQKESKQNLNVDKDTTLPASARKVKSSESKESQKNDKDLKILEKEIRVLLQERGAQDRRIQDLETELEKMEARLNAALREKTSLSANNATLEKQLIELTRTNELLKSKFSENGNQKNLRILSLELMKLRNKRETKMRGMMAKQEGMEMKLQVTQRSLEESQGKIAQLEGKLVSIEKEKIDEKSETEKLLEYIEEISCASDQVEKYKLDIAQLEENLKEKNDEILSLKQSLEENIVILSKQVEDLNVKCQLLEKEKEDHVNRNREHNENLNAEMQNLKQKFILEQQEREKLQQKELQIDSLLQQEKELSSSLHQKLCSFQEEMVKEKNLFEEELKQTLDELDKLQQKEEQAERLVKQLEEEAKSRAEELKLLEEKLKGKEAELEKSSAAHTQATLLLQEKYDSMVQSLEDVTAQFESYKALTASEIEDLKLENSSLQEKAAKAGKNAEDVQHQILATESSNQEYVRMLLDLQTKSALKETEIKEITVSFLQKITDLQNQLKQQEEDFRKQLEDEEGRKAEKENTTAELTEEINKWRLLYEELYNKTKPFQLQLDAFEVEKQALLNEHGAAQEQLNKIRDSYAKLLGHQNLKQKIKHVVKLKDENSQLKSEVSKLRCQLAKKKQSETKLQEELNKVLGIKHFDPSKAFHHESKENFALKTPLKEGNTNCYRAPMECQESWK
TEST_PROTOCOL: Inhibition of C-terminal His-tagged 7 kDa RHAMM (unknown origin) binding to HA assessed as association constant at 10 nM after 240 secs by SPR method
ATTRIBUTE_MEASURED: K (×10⁴ /M.s)

SUBSTANCE: H-EEDFGEEAEEEA-NH2
K / ×10⁴ /M.s: 2.3

SUBSTANCE: H-VEGEGEEEGEEY-NH2
K / ×10⁴ /M.s: 1.6

SUBSTANCE: H-GEFEEEAEEEVA-NH2
K / ×10⁴ /M.s: 0.22

1 = H-EAFEDEEEEIDG-NH2
2 = H-SVEAEAEEGEEY-NH2
3 = H-FTEAESNMNDLV-NH2
// query Could you please order the items by K, going from the lowest number to the highest? Rank the items, then write their labels in that order.
// result 2, 3, 1
